Each entry below carries its reported IC50.
Test system: Madin Darby canine kidney (MDCK) cells
assay.notes: cells
Format: cell-based
measurement.parameters: Canis lupus familiaris, cytotoxic concentration, run with Influenza A (H1N1), positive control drug = ribavirin, read-out: CPE Inhibition test IC50

{"smiles.repr": "C/C(O)=C(\\C#N)C(=O)Nc1ccc(C(F)(F)F)cc1", "test.system": "Madin Darby canine kidney (MDCK) cells", "IC50": "29 µM"}

*Q* Record request: IC50 value, item `Cc1nocc1C(=O)Nc1ccc(C(F)(F)F)cc1`
*A* 63 µM

*Q* Report IC50 for `Cc1oncc1C(=O)Nc1cccc(C(F)(F)F)c1` please.
*A* > 200 µM
